- Measured target: human factor Xa (Homo sapiens)
- Construct: released from the colourless chromogenic substrate by human factor Xa; purchased Roche
- Sequence (P00742 235-488 limits assumed): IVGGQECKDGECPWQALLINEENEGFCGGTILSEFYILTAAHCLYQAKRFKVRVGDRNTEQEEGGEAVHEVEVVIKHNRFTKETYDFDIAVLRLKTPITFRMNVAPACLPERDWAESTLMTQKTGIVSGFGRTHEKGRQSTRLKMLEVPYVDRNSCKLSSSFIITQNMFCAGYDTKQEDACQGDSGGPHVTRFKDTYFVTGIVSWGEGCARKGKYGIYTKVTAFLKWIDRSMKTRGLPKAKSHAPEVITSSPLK
- Sequence (P00742 41-179 partner limits assumed): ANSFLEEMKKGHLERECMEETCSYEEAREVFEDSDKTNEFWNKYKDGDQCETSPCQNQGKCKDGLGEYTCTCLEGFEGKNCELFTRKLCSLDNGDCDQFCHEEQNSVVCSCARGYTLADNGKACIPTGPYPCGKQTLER
- Assay notes: Inhibition of factor Xa, enzyme-kinetic measurement with chromogenic substrate (Chromozym X)
- Type: biochemical
- Assay setup: pNA release from Chromozym X 200 μMol/l, 405 nm, 37° C., pH 8.0, factor Xa 0.175 U/ml
Consider the following compounds and their measured IC50 readings.

| Compound | Unit abbreviation | IC50 |
| --- | --- | --- |
| Cc1cc(C(=O)NC(Cc2nnn[nH]2)c2cccc(C(=N)N)c2)ccc1C(=O)N1CCCC1 (centres unmarked) [(2)] | µM | 0.026 |
| Cc1cc(C(=O)NC(Cc2nnn[nH]2)c2cccc(C(=N)N)c2)ccc1C(=O)N1CC=CC1 (centres unmarked) [(1)] | µM | 0.008 |
